# Method summary: yeast display, Sf9 membrane polyspecificity reagent, FACS + sequencing; frameworks hold sequencing errors
Recorded endpoint: polyreactivity (PSR sort gate)

Look over these answered cases.
QVQLVESVGGLVQAGGSLRLSCPASGITFEQYAMGWYRQAPGKEREWVAAISSNGGITFYADSVKGRFTISRDNAKNTVYLQMNSLKPEDTAVYYCAARLCVTYPYIAYDYWGQGTQVTVSS high polyreactivity
QVQHVESVGGLVQAGGSLRLSCAASGITFNYNAMGWYRQAPGKERELVAAIRGSDSTTYYADSVKGRFTISRDNAKNTVYLQMNSLKPEDTAVYYCAAVGVVPRKKSARVYYWGQGTQVTVSS low polyreactivity
QVQLVESGGGLVQAGGSLRLSCAASGSIFYYNDRGWSRQAPGKDRELVATIRSGGNTNYADSVKGRFTISRDIAKNTVYLQMNSLKPEDSAVYYCTARGAYHGYRYDSWGQGTQVTVSS low polyreactivity
QVQLVESGGGLVQAGGSLRLSCAASGITFYGKAMGWYREAPGKERELGAAITGGGGTNYADSVKGRFTISRDNAKKTVYLQMTSLKPEDTAVYYCNRDYFVWFQRGQYKRGSSWYDNWGQGTQVTVSS low polyreactivity
QVQLVESGGGLVQAGGSLRLSCAASGSTFYYYAMGWYRQAPGKERELVAAIDWSGESTYYADSVKGRFTISRDKAKKTVYLQMHSLKPEDTAVYYCAADLGYPWGYVLFYKQSISYYYWGQGTQVTVSS low polyreactivity
QVQLVESGGGLVQAGGSLRLSCAASGRTFGYYAMGWYIQAPGKERELVAAISSRGGSTYYADSVKGRFTISRDNAKNTVYLQMNSLKPEDTAVYYCNTRWTNIHPRYDYWGQGTQVTVSS high polyreactivity
QVQLVESGGGLFQEGGSLRLSCAASGSIFTFYAMGWYRQAPGKERELVAAITSGGSTTYADSVKGRFTISRDNAKNTVYLQMNSLKREDTAVFYCNAESWWGYYYWGQVTQVTVSS high polyreactivity
QVQLVESGGGLVQAGGSLRLSCAASGSIFTYYAMGWYRQAPGKERELVAAISYSGGTTYYADSVKGRFTISRDNAKNTVYLQMYSLKPEDTAVYYCNVDADYESEWLSVGYDYWGQGTQVTVSS low polyreactivity

Task: So what does the record say about polyreactivity (PSR sort gate) for QVQLVESGGGLVQAGGSLRLICAASGIIFVSNAMGWYRQAPGKERELVATINWSDDSTYYADSVKGRFTISRDNAKYTVYLQMNSLKPEDTAVYYCNARPLRYVESDYWGQGTQVTVSS ?
Result: low polyreactivity

Task: Dear colleague, I am looking for the recorded polyreactivity (PSR sort gate) of the following sequence: QVQLVESGGGLVQAGGSLRLSCAASGSIFAVYTMGWYRQAPGKEREVVAAITKSGGRTYYADSVKGRFTISRDNAKNTVYLQMNSLKPEDTAVYYCARRRTIPYTLVDYDSWGQGTQVTVSS
Result: low polyreactivity

Task: Record request: polyreactivity (PSR sort gate) value, item QVQLVESGGGLVQAGGSLRLSCAASGFIFHLYAMGWYRQAPGKERELVAVISGGGSTYYADSVKGRFTISRDNAKNTVYLQMNSLKPEDTAVYYCNVGRYYRYATGGDYWGQGTQVTVSS
Result: high polyreactivity

Task: Reported polyreactivity (PSR sort gate), sequence QVQLVESGGGLVQAGGSLRLSCAASGSIFVTYAMGGYRQAPGKERELVAAISTSGGSTYADSVKGRFTISRDNAKNTVYLQMNSLKPEDTAVYYCNADDPGYAVPWYWFKFDYWGQGTQVTVSS : ____
Result: low polyreactivity

Task: Suppose we examine the sequence QVQLVESGGGLVQAGGSLRLSCAASGITFPRYAMGWYRQAPGKERELVATITSRGGSTYYADSVKGRFTISRDNAKNTVYLQMNSLKPEDTAVYYCNAQYLLFHGYRYDYWGQCTQVTVSS ; what polyreactivity (PSR sort gate) value has been reported?
Result: high polyreactivity

Task: Entry under review: QVQLVESGGGLVQAGGSLRLSCAASGIIFWHYAMGWYRQAPGKERELVAAISSRGGYTYYADSVKGRFTISRDNAKNTVSLQMNSLKPEDTAVYYCNAGYYTHRYRFLVQGDYWGQGTQVTVSS . Reported polyreactivity (PSR sort gate)?
Result: high polyreactivity

Task: Looking for the measured polyreactivity (PSR sort gate) of QVQLVESGGGLVQAGGSLRLSCAASGFTFYIYAMGWYRQAPGKERELVAGIDYSGGSTYYADSVKGRFTISRDNAKNTVYLQMNSLKPEDTAVYYCARYGPYQSSYHYDYWGQGTQVTVSS , can you help?
Result: high polyreactivity
